ASSAY_SYSTEM: Cholesteryl ester transfer protein (Homo sapiens) (UniProt P11597)
Sequence (whole entry): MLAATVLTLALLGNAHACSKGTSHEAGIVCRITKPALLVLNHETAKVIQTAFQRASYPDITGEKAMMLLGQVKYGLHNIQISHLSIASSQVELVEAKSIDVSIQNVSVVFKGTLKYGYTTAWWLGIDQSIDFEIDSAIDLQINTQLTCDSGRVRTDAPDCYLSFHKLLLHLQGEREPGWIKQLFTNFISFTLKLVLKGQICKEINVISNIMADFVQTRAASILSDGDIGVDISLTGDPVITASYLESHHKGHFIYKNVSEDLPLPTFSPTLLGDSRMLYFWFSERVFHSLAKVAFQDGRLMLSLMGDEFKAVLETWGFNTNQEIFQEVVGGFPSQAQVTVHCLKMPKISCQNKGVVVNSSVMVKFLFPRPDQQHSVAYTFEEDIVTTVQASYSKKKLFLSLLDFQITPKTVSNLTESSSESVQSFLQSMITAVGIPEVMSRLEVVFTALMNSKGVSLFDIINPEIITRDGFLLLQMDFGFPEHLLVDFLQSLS
PROTOCOL_SUMMARY: Inhibition of human recombinant CETP-mediated cholesteryl ester transfer activity at 100 uM after 1 hr by fluorescent cholesteryl esters transfer assay relative to control
Tick yes if inhibition is 90% or greater. Tick no if inhibition is less than 90%.

> print(dat)
                                   compound  assigned.category
1  COc1cc(F)c(C(C)C)cc1-c1ccc(C(F)(F)F)cc1CN1C[C@@H](c2cc(C(F)(F)F)cc(C(F)(F)F)c2)OC1=O                yes

// inclusive: inhibition at least 90%? input: COc1cc(F)c(C(C)C)cc1-c1ccc(C(F)(F)F)cc1CN1C(=O)O[C@H](c2cc(C(F)(F)F)cc(C(F)(F)F)c2)C1(C)C
yes

// inclusive: inhibition at least 90%? input: COc1ccc(C(C)C)cc1-c1ccc(C(F)(F)F)cc1CN1C(=O)O[C@@H](c2cc(C(F)(F)F)cc(C(F)(F)F)c2)[C@@H]1C
no

// inclusive: inhibition at least 90%? input: COC(=O)N(Cc1cc(C(F)(F)F)cc(C(F)(F)F)c1)Cc1cc(C(F)(F)F)ccc1-c1cc(C(C)C)ccc1OC
no

====

IC50 values by entry
ASSAY_SYSTEM: Cholesteryl ester transfer protein (Homo sapiens, UniProt P11597)
Sequence (P11597 whole entry): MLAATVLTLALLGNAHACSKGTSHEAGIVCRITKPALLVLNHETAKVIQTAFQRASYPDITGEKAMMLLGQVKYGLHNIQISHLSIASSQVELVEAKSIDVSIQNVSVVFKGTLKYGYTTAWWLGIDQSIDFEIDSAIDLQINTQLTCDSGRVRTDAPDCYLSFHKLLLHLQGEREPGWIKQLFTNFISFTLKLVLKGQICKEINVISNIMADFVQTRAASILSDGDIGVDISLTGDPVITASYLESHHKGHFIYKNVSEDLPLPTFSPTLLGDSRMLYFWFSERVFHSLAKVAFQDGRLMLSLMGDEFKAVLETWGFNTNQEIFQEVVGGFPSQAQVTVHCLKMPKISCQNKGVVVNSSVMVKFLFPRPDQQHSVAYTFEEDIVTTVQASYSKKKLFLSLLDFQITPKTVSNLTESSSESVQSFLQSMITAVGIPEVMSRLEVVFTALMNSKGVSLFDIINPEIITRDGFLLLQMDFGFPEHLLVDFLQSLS
PROTOCOL_SUMMARY: Inhibition of human recombinant CETP-mediated cholesteryl ester transfer activity after 1 hr by fluorescent cholesteryl esters transfer assay
Answer format: numeric, nM implied, no suffix.

Example molecules with recorded IC50:
> print(dat)
                                   molecule  experimental.endpoint  measurement
1  COc1cc(F)c(C(C)C)cc1-c1ccc(C(F)(F)F)cc1CN1C[C@@H](c2cc(C(F)(F)F)cc(C(F)(F)F)c2)OC1=O                   IC50         25.6
2  COc1ccc(C(C)C)cc1-c1ccc(C(F)(F)F)cc1CN1C[C@@H](c2cc(C(F)(F)F)cc(C(F)(F)F)c2)OC1=O                   IC50           93
3  CC[C@H]1[C@@H](c2cc(C(F)(F)F)cc(C(F)(F)F)c2)OC(=O)N1Cc1cc(C(F)(F)F)ccc1-c1cc(C(C)C)ccc1OC (racemic)                   IC50          268

Check the records and state IC50 for COc1ccc(C(C)C)cc1-c1ccc(C(F)(F)F)cc1CN1C(=O)O[C@H](c2ccccc2)[C@@H]1C
39.3

Check the records and state IC50 for COc1ccc(C(C)C)cc1-c1ccc(C(F)(F)F)cc1CN1C(=O)O[C@@H](c2ccccc2)[C@H]1C
5670

Check the records and state IC50 for COC(=O)N(Cc1cc(C(F)(F)F)cc(C(F)(F)F)c1)Cc1cc(C(F)(F)F)ccc1-c1cc(C(C)C)ccc1OC
126
